# System: superoxide anion formation from rat neutrophils stimulated with PMA
# assay-text: Superoxide anion formation in rat neutrophils stimulated by PMA
# Type: cell-based
# condition-set: rat neutrophils stimulated with PMA
readout-label: IC50

Could I get IC50 for every one of these entries?
1. CC1(C(=O)O)CCC2(C)CCC3(C)C(=CC(=O)C4C5(C)CCC(=O)OC(C)(C)C5CCC43C)C2C1 (centres unmarked)
2. C=C(C)C1CCC2(C)C(C(=O)C=C3C4CC(C)(C(=O)O)CCC4(C)CCC32C)C1(C)CCC(=O)OC(C)C (centres unmarked)
3. c1ccc2c(c1)[I+]c1ccccc1-2 [DPI, reference compound]
4. CC1(C(=O)OCc2ccccc2)CCC2(C)CCC3(C)C(=CC(=O)C4C5(C)CCC(=O)OC(C)(C)C5CCC43C)C2C1 (centres unmarked)
5. CC1(C(=O)Nc2ccccc2)CCC2(C)CCC3(C)C(=CC(=O)C4C5(C)CCC(=O)OC(C)(C)C5CCC43C)C2C1 (centres unmarked)
6. CC(C)NC(=O)C1(C)CCC2(C)CCC3(C)C(=CC(=O)C4C5(C)CCC(=O)OC(C)(C)C5CCC43C)C2C1 (centres unmarked)

> 3 µM
> 1 µM
1.8 µM
> 30 µM
> 3 µM
> 30 µM

Could I get IC50 for every one of these entries?
1. C=C(C)C1CCC2(C)C(C(=O)C=C3C4CC(C)(C(=O)O)CCC4(C)CCC32C)C1(C)CCC(=O)OC (centres unmarked)
2. C=C(C)C1CCC2(C)C(C(=O)C=C3C4CC(C)(C(=O)OC(C)C)CCC4(C)CCC32C)C1(C)CCC(=O)OC (centres unmarked)

1. > 10 µM
2. > 10 µM
